Target: p15NC-SP2-p6 (HIV-1, UniProt P12493 378-500)
Assay: ITC; ITC at 30 C in TBS with 1 mM TCEP (pH not stated); 8 uM (6-10) protein in cell, 40 uM (15-50) nucleic acid in syringe; one-site model
Conditions: protein: recombinant; tags: C-terminal His; hairpin
assay_metric: pKd
Kindly note that pKd refers to -log10 of the concentration in mol/L and answer with the value alone.

Query string: State the recorded pKd for this entry: GGACUAGCGGAGGCUAGUCC (structured_RNA) [Psi SL3 RNA (20mer)]
Result string: 7.24
